- system_under_test: Bifunctional epoxide hydrolase 2 (Homo sapiens) (UniProt P34913)
- Sequence (whole entry): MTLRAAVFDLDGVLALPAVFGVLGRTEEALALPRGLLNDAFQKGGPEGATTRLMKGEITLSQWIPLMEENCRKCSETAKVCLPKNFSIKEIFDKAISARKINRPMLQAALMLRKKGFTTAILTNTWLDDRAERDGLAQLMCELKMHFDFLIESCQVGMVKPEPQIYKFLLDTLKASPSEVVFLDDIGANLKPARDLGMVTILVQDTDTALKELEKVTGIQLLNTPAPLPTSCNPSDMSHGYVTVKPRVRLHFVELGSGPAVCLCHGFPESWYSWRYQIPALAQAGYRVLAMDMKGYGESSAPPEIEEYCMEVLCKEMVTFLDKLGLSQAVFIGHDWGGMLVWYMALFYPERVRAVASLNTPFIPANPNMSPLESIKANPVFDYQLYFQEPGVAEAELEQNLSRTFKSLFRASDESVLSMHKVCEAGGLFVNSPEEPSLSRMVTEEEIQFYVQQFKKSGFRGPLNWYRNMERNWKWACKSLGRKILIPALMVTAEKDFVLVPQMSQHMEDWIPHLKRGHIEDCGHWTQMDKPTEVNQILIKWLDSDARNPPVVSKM
- run_description: Inhibition of sEH (unknown origin) using PHOME as substrate assessed as formation of 6-methoxy-2-naphthaldehyde at 100 uM measured during 1 hr by fluorescence photometric analysis relative to control
Entry flag: condition met if inhibition reaches 90%; condition not met if it does not.

Say whether C[C@@H]1O[C@@H](OCc2cc(O)c3c(c2)[C@H]([C@@H]2OC[C@@H](O)[C@H](O)[C@H]2O)c2cccc(O)c2C3=O)[C@H](O)[C@H](O)[C@H]1O shows inhibition of 90% or more.
condition not met

Say whether O=C1c2cc(CO)cc(O)c2C(=O)c2c1ccc([C@]1([C@@H]3O[C@H](CO)[C@@H](O)[C@H](O)[C@H]3O)c3cccc(O)c3C(=O)c3c(O)cc(CO)cc31)c2O shows inhibition of 90% or more.
condition met

Say whether C[C@@H]1O[C@@H](OCc2cc(O)c3c(c2)[C@H]([C@@H]2O[C@H](CO)[C@@H](O)[C@H](O)[C@H]2O)c2cccc(O)c2C3=O)[C@H](O)[C@H](O)[C@H]1O shows inhibition of 90% or more.
condition not met

Say whether O=C1c2c(O)cccc2[C@@H]([C@@H]2O[C@H](CO)[C@@H](O)[C@H](O)[C@H]2O)c2cc(CO)cc(O)c21 shows inhibition of 90% or more.
condition not met

Say whether O=C1c2c(O)cccc2C([C@@H]2O[C@H](CO)[C@@H](O)[C@H](O)[C@H]2O)c2cc(CO)cc(O)c21 (stereo partly drawn) [ALOIN] shows inhibition of 90% or more.
condition not met

Say whether C[C@@H]1O[C@@H](OCc2cc(O)c3c(c2)[C@](O)([C@@H]2O[C@H](CO)[C@@H](O)[C@H](O)[C@H]2O)c2cccc(O)c2C3=O)[C@H](O)[C@H](O)[C@H]1O shows inhibition of 90% or more.
condition met

Say whether O=C1c2cccc(O)c2C(=O)c2c(O)cc(CO)cc21 [ALOE-EMODIN] shows inhibition of 90% or more.
condition not met
